Values from ChEMBL document CHEMBL4888484

Could you please report measured % Inhibition for the items listed next?
test system: Plasmodium falciparum; experiment: Confirmatory screen in NF54 nanoGlo assay, in single point, at 2uM, 72h; format: functional, Erythrocyte; conditions: timepoint 72 hour
Out of some 4,800 compounds screened, about 420 (8.8%) showed an effect of 50% or more. The list comes from a sample in which strong results are over-represented; it also holds close analogues and randomly drawn compounds.
Please make sure the unit comes right after the number.

Summary for this molecule, O=C(CCc1ccccc1)N[C@@H](c1ccccc1)c1ccc2c3c(cccc13)CC2 : % Inhibition is -12%

Summary for this molecule, Cc1cccnc1C(=O)N1CC(n2cnnc2[C@@H]2CCCO2)C1 : % Inhibition is -2%

Summary for this molecule, COc1ccc(C2=Nc3ccc(S(=O)(=O)N4CCOCC4)cc3S(=O)(=O)N2)cc1 : % Inhibition is -10%

Summary for this molecule, Cc1cc(C)n(-c2nc(Nc3ccc(Cl)cc3)nc(Nc3ccc(Cl)cc3)n2)n1 : % Inhibition is 82%

Summary for this molecule, O=C(O)Cc1ccc(OCc2nc(-c3ccsc3)no2)cc1 : % Inhibition is -2%

Summary for this molecule, Cc1cc(C(=O)N(CCN(C)C)c2ccccc2)c(C)s1 : % Inhibition is -1%

Summary for this molecule, Cc1cc(Br)ccc1N1CC[C@@H](C(=O)NC2CC2)C1=O : % Inhibition is 2%

Summary for this molecule, O=C(Nc1nn(Cc2ccccc2)cc1Cl)c1cc(-c2ccc(OC(F)F)cc2)[nH]n1 : % Inhibition is 4%

Summary for this molecule, Cc1cc(NC(=O)C(=O)NC2CC(C)CC(C)(C)C2)n(-c2nc3c(c(=O)[nH]2)CCC3)n1 (configuration not stated) : % Inhibition is 90%

Summary for this molecule, COc1ccc2ccccc2c1C(=O)Nc1ccc(N2CCN(C)CC2)c(Cl)c1 : % Inhibition is 5%

Summary for this molecule, Cc1cccc(CC(=O)N[C@@H](C)CCC(=O)O)c1 : % Inhibition is 4%

Summary for this molecule, N[C@@H](CO)c1cccc(Br)c1 : % Inhibition is 7%

Summary for this molecule, COc1ccc(N(Cc2ccc(F)cc2)S(=O)(=O)c2ccc3nncn3c2)cc1 : % Inhibition is -13%

Summary for this molecule, COc1cc(OC)nc(-n2nc(C)cc2C(=O)Nc2ccc(Cl)cc2)n1 : % Inhibition is 10%

Summary for this molecule, COc1ccc(CCc2nnc(NC(=O)Cc3c(C)noc3C)[nH]2)cc1OC : % Inhibition is 15%

Summary for this molecule, COc1ccc(S(=O)(=O)N2CCC(c3cc(N)on3)CC2)cc1Cl : % Inhibition is 46%

Summary for this molecule, COc1ccc(F)cc1S(=O)(=O)N1CCc2noc(N)c2C1 : % Inhibition is 68%

Summary for this molecule, O=C(Nc1ccn(Cc2cccnc2)n1)c1ccc(-c2ccccc2F)o1 : % Inhibition is -2%

Summary for this molecule, COc1ccc(CCc2nc(NC(=O)c3nc(C)sc3C)n[nH]2)cc1OC : % Inhibition is 65%

Summary for this molecule, O=C1CN(C(=O)Cc2c(F)cccc2Cl)C2(CCCC2)CN1 : % Inhibition is -11%

Summary for this molecule, O[C@@]1(CN2CCC(COc3ccc4c(c3)CCC4)CC2)CCCNC1 : % Inhibition is 52%

Summary for this molecule, O=C(Nc1cccc2cccnc12)N1CCOCC1CC(O)c1cccs1 (configuration not stated) : % Inhibition is 0%
